# System: Haemophilus influenzae
# test.description: Antibacterial activity against Haemophilus influenzae IID983 by agar dilution method
# Type: functional
# MIC listing for each entry below
Give the quantity in µg/mL, number only.

Past entries and their recorded results:
- compound: "N#C[C@]1(c2ccc(-c3ccc(N4C[C@H](Cn5ccnn5)OC4=O)cc3)cn2)[C@@H]2C[S+]([O-])C[C@@H]21 (some centres not stated)"
  measured.quantity: "MIC"
  assay.value: 8
- compound: "N#C[C@]1(c2ccc(-c3ccc(N4C[C@H](Cn5ccnn5)OC4=O)cc3F)cn2)[C@@H]2CS(=O)(=O)C[C@@H]21"
  measured.quantity: "MIC"
  assay.value: 4
- compound: "N#C[C@]1(c2ccc(-c3ccc(N4C[C@H](Cn5ccnn5)OC4=O)cc3F)cn2)[C@@H]2COC[C@@H]21"
  measured.quantity: "MIC"
  assay.value: 2
- compound: "COC(=O)NC[C@H]1CN(c2ccc(-c3ccc([C@@]4(C#N)[C@@H]5CNC[C@@H]54)nc3)c(F)c2)C(=O)O1"
  measured.quantity: "MIC"
  assay.value: 4

Please turn your attention to the following entry.
Query: # value lookup — system Haemophilus influenzae, readout MIC, item N#C[C@]1(c2ccc(-c3ccc(N4C[C@H](COc5ccon5)OC4=O)cc3F)cn2)[C@@H]2CNC[C@@H]21
Response: 4

###

# Test system: Haemophilus influenzae
# test.description: Antibacterial activity against Haemophilus influenzae IID983 by agar dilution method
# Format: functional
# MIC listing for each entry below
Give the quantity in µg/mL, number only.

- compound: "N#C[C@]1(c2ccc(-c3ccc(N4C[C@H](Cn5ccnn5)OC4=O)cc3F)cn2)[C@@H]2CN(C(=O)CO)C[C@@H]21"
  target.under.test: "Haemophilus influenzae"
  MIC / µg/mL: 4
- compound: "N#C[C@]1(c2ccc(-c3ccc(N4C[C@H](CNC(=O)C(F)F)OC4=O)cc3F)cn2)[C@@H]2CNC[C@@H]21"
  target.under.test: "Haemophilus influenzae"
  MIC / µg/mL: 2

Query: Would you kindly share the measured MIC for N#CN1C[C@@H]2[C@H](C1)[C@@]2(C#N)c1ccc(-c2ccc(N3C[C@H](Cn4ccnn4)OC3=O)cc2F)cn1 ?
Response: 2

Query: Would you kindly share the measured MIC for N#C[C@]1(c2ccc(-c3c(F)cc(N4C[C@H](Cn5ccnn5)OC4=O)cc3F)cn2)[C@@H]2C[S+]([O-])C[C@@H]21 (some centres not stated) ?
Response: 8

Query: Would you kindly share the measured MIC for N#C[C@]1(c2ccc(-c3c(F)cc(N4C[C@H](Cn5ccnn5)OC4=O)cc3F)cn2)[C@@H]2COC[C@@H]21 ?
Response: 4

###

# System: Streptococcus pneumoniae
# test.description: Antibacterial activity against penicillin-resistant Streptococcus pneumoniae PR44 by agar dilution method
# Type: functional
measured.quantity: MIC (µg/mL)
Give the quantity in µg/mL, number only.

Query: # value lookup — system Streptococcus pneumoniae, readout MIC, item CC(=S)NC[C@H]1CN(c2ccc(-c3ccc([C@@]4(C#N)[C@@H]5CNC[C@@H]54)nc3)c(F)c2)C(=O)O1
Response: 0.03

Query: # value lookup — system Streptococcus pneumoniae, readout MIC, item N#C[C@]1(c2ccc(-c3ccc(N4C[C@H](CNc5ccon5)OC4=O)cc3F)cn2)[C@@H]2CNC[C@@H]21
Response: 0.25

Query: # value lookup — system Streptococcus pneumoniae, readout MIC, item N#C[C@]1(c2ccc(-c3ccc(N4C[C@H](Cn5ccnn5)OC4=O)cc3)cn2)[C@@H]2C[S+]([O-])C[C@@H]21 (some centres undefined)
Response: 0.125

Query: # value lookup — system Streptococcus pneumoniae, readout MIC, item CC(=O)NC[C@H]1CN(c2ccc(-c3ccc([C@@]4(C#N)[C@@H]5CNC[C@@H]54)nc3)c(F)c2)C(=O)O1
Response: 0.06

Value source: ChEMBL document CHEMBL1140184
